Reported XC50 values for the following compounds.
Tested on: Plasmodium falciparum
Procedure summary: GSK_TCMDC: Inhibition of Plasmodium falciparum 3D7 in whole erythrocytes, using parasite LDH activity as an index of growth.
Assay type: functional, organism-based
Run parameters: Plasmodium falciparum, 3D7
Write the answer as a number in nM, unit excluded.

The examples below pair each entry with its known result.
Compound	Assayed system	XC50 / nM
Cc1ccc2c(OCCN3CCC(Cc4cc5c(cc4F)OCC(=O)N5)CC3)cc(F)cc2n1	Plasmodium falciparum	631
OC(CNC1CCCCC1)Cn1c2ccccc2c2ccccc21 (stereo not given)	Plasmodium falciparum	991

Fill in XC50 for `O=C(Nc1ccc2c(c1)OCO2)c1cc(-c2cccnc2)cnc1NCc1ccc2c(c1)OCO2` tested with Plasmodium falciparum.
1190

Fill in XC50 for `COc1ccc2nc(-c3ccccc3)cc(NCCN(C)C)c2c1` tested with Plasmodium falciparum.
731

Fill in XC50 for `COc1ccc(CNCc2ccc(-c3cccc(-c4nc5cc(F)ccc5[nH]4)c3)cc2)cc1` tested with Plasmodium falciparum.
202

Fill in XC50 for `O=C(NCCCN1CCC(N2CCCCC2)CC1)c1ccc(N2CCOc3ccccc32)s1` tested with Plasmodium falciparum.
732

Fill in XC50 for `Cc1cc(=O)c(-c2ccc(Oc3ccc(OC(F)(F)F)cc3)cc2)c(C)[nH]1` tested with Plasmodium falciparum.
363

Fill in XC50 for `COc1ccc(-c2cccc(NC(=O)c3ccc(C#N)cc3)c2)cc1CN1CCCN(C)CC1` tested with Plasmodium falciparum.
756

Fill in XC50 for N#Cc1cncc(-c2nc3c(N4CCC(Cc5ccccc5)CC4)cccc3n2C2CCNC2)c1 (stereo not given) tested with Plasmodium falciparum.
987

Fill in XC50 for `Clc1ccc(-c2cnc3ccc(NCc4ccncc4)nn23)cc1` tested with Plasmodium falciparum.
891

* * *

Reported XC50 values for the following compounds.
Test system: Plasmodium falciparum
Procedure summary: GSK_TCMDC: Inhibition of Plasmodium falciparum 3D7 in whole erythrocytes, using parasite LDH activity as an index of growth.
Type: functional, organism-based
Run parameters: Plasmodium falciparum, 3D7
Write the answer as a number in nM, unit excluded.

The examples below pair each entry with its known result.
Compound	Measured parameter	Endpoint value
OCCn1c(CNCCCNc2nc3ccccc3[nH]2)cc2c(Cl)cc(Cl)cc21	XC50	806
CC(=O)Nc1ccc(OCCCN(Cc2ccccc2OC(F)(F)F)c2ccc(C(F)(F)F)c(C#N)c2)c(Cl)c1	XC50	813

We now examine a further compound.
Fill in XC50 for Cc1cc2c(cc1C(F)(F)F)N(C(=O)Nc1ccc(C(=O)NC3CCN(Cc4ccccc4)C3)cc1)CC2 (stereo not drawn) tested with Plasmodium falciparum.
776

* * *

Test system: Plasmodium falciparum
Procedure summary: GSK_TCMDC: Inhibition of Plasmodium falciparum 3D7 in whole erythrocytes, using parasite LDH activity as an index of growth.
Format: functional, organism-based
Run parameters: Plasmodium falciparum, 3D7
Measured parameter: XC50
Provide the measurement as a number trailed by its unit.

Compound	Measured parameter	Endpoint value
CC(C)COc1ccc2ccccc2c1CNCCCCCCNCc1c(OCC(C)C)ccc2ccccc12	XC50	695 nM
CCN(CCNC(=O)Cn1c(C)cc2cc([N+](=O)[O-])ccc21)c1cccc(C)c1	XC50	1010 nM

Recall and state the measured XC50 for CCC(Nc1noc(-c2c(-c3ccccc3)noc2C)n1)c1ccccc1 (stereo not drawn) .
973 nM
